Data provenance is patent US20120015925A1.

# tested-target: UniProt Q12908
# experiment-notes: In vitro assay using Cos 7 cells, transiently expressed human IBAT
# Type: cell-based
# condition-notes: [3H]-taurocholate 8 μM uptake, 37° C., 60 minutes
Give measured IC50 for each item. Keep answers brief.
Could you give me the number in nM? Just the number is fine.

Input: I have this compound here, CCCCC1(CCCC)CS(=O)(=O)c2ccc(N(C)C)cc2C(c2cccc(NC(=S)Nc3c(C)cc(C[N+]45CCC(CC4)CC5)cc3C)c2)N1 (stereo not shown) , and I need its recorded IC50.
Output: 100

Input: Now this one: CCCCC1(CCCC)CS(=O)(=O)c2ccc(N(C)C)cc2C(c2cccc(NC(=S)Nc3ccc(C[N+](C)(C)Cc4ccccc4)cc3C)c2)N1 (stereo not shown)
Output: 38

Input: Now this one: CCCCC1(CCCC)CS(=O)(=O)c2ccc(N(C)C)cc2C(c2cccc(NC(=S)Nc3ccc(C[n+]4ccc(C5CCOCC5)cc4)cc3)c2)N1 (stereo not shown)
Output: 39

Input: Now this one: CCCCC1(CCCC)CS(=O)(=O)c2ccc(N(C)C)cc2C(c2cccc(NC(=S)Nc3ccc(C[n+]4cccc(C(=O)c5ccccc5)c4)cc3)c2)N1 (racemic)
Output: 81

Input: Now this one: CCCCC1(CCCC)CS(=O)(=O)c2ccc(N(C)C)cc2C(c2cccc(NC(=S)Nc3ccc(C[n+]4ccc(-c5ccccc5)cc4)cc3Cl)c2)N1 (stereo not shown)
Output: 18

Input: Now this one: CCCCC1(CCCC)CS(=O)(=O)c2ccc(N(C)C)cc2C(c2cccc(NC(=S)Nc3ccc(C[N+](C)(C)CCN(C)C)cc3)c2)N1 (racemic)
Output: 127

Input: Now this one: CCCCC1(CCCC)CS(=O)(=O)c2ccc(N(C)C)cc2C(c2cccc(NC(=S)Nc3ccc(C[n+]4ccc(CC)cc4)cc3)c2)N1.[Br-] (stereo not shown)
Output: 52

Input: Now this one: CCCCC1(CCCC)CS(=O)(=O)c2ccc(N(C)C)cc2C(c2cccc(NC(=S)Nc3ccc(C[N+]45CCC(CC4)C(=O)C5)cc3)c2)N1 (stereo not shown)
Output: 72

Input: Now this one: CCCCC1(CCCC)CS(=O)(=O)c2ccc(N(C)C)cc2C(c2cccc(NC(=S)Nc3ccc(C[n+]4ccc5ccccc5c4)cc3)c2)N1.[Br-] (stereo not shown)
Output: 48

Input: Now this one: C#CC[N+](C)(C)Cc1ccc(NC(=S)Nc2cccc(C3NC(CCCC)(CCCC)CS(=O)(=O)c4ccc(N(C)C)cc43)c2)cc1 (stereo not shown)
Output: 55

Input: Now this one: CCCCC1(CCCC)CS(=O)(=O)c2ccc(N(C)C)cc2C(c2cccc(NC(=S)Nc3ccc(C[n+]4ccc(C)c(C)c4)cc3)c2)N1 (stereo not shown)
Output: 66

Input: Now this one: CCCCC1(CCCC)CS(=O)(=O)c2ccc(N(C)C)cc2C(c2cccc(NC(=S)Nc3ccc(C[n+]4cccc(-c5cccs5)c4)cc3)c2)N1 (racemic)
Output: 73

Input: Now this one: CCCCC1(CCCC)CS(=O)(=O)c2ccc(N(C)C)cc2C(c2cccc(NC(=S)Nc3ccc(C[N+](C)(C)Cc4ccccc4)c(Cl)c3)c2)N1 (stereo not shown)
Output: 44

Input: Now this one: CCCCC1(CCCC)CS(=O)(=O)c2ccc(N(C)C)cc2C(c2cccc(NC(=S)Nc3ccc(C[n+]4ccc(-c5ccccc5)cc4)cc3C)c2)N1 (stereo not shown)
Output: 37

Input: Now this one: CCCCC1(CCCC)CS(=O)(=O)c2ccc(N(C)C)cc2C(c2cccc(NC(=S)Nc3ccc(C[N+]45CCC(c6ccccc6)(CC4)CC5)c([N+](=O)[O-])c3)c2)N1 (stereo not shown)
Output: 41

Input: Now this one: CCCCC1(CCCC)CS(=O)(=O)c2ccc(N(C)C)cc2C(c2cccc(NC(=S)Nc3ccc(C[n+]4ccc(C(C)(C)C)cc4)cc3C)c2)N1 (stereo not shown)
Output: 48

Input: Now this one: CCCCC1(CCCC)CS(=O)(=O)c2ccc(N(C)C)cc2C(c2cccc(NC(=S)Nc3ccc(C[N+]45CCC(c6ccccc6)(CC4)CC5)cc3F)c2)N1.[Br-] (stereo not shown)
Output: 15

Input: Now this one: CCCCC1(CCCC)CS(=O)(=O)c2ccc(N(C)C)cc2C(c2cccc(NC(=S)Nc3ccc(C[N+]45CCC(c6ccccc6)(CC4)CC5)cc3Cl)c2)N1.[Br-] (stereo not shown)
Output: 19

Input: Now this one: CCCCC1(CCCC)CS(=O)(=O)c2ccc(N(C)C)cc2C(c2cccc(NC(=S)Nc3ccc(C[n+]4ccc(C(C)(C)O)cc4)cc3)c2)N1 (stereo not shown)
Output: 37

----------
# tested-target: human IBAT (Homo sapiens, UniProt Q12908)
# Sequence (Q12908 whole entry): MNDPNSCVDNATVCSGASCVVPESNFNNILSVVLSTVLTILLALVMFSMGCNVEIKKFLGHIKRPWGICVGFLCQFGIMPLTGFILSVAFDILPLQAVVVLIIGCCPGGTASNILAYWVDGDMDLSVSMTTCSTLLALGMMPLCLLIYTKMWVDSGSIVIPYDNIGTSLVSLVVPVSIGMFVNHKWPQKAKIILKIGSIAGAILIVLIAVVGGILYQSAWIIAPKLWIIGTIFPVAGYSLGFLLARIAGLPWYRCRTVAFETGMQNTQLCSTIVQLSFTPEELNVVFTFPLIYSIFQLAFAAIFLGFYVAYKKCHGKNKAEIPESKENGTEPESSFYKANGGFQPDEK
# experiment-notes: In vitro assay using Cos 7 cells, transiently expressed human IBAT
# Assay type: cell-based
# condition-notes: [3H]-taurocholate 8 μM uptake, 37° C., 60 minutes
Each record's IC50 is compared with range A: < 30 nM; range B: ≥ 30 nM and < 70 nM; range C: ≥ 70 nM to give its class.

Input: In plain terms, what class is CCCCC1(CCCC)CS(=O)(=O)c2ccc(N(C)C)cc2C(c2cccc(NC(=S)Nc3ccc(C[N+]4(Cc5ccccc5)CCC(CCO)CC4)cc3)c2)N1.[Br-] (stereo not drawn) [EXAMPLE 3608] ?
Output: range B

Input: Now this one: CCCCC1(CCCC)CS(=O)(=O)c2ccc(N(C)C)cc2C(c2cccc(NC(=S)Nc3c(C)cc(C[N+](C)(C)Cc4ccccc4)cc3C)c2)N1 (stereo not drawn) [EXAMPLE P338]
Output: range B

Input: Now this one: CCCCC1(CCCC)CS(=O)(=O)c2ccc(N(C)C)cc2C(c2cccc(NC(=S)Nc3ccc(C[n+]4ccc(NC=O)cc4)cc3)c2)N1 (racemic) [EXAMPLE 3754]
Output: range C

Input: Now this one: CCCCC1(CCCC)CS(=O)(=O)c2ccc(N(C)C)cc2C(c2cccc(NC(=S)CCCCC[N+]34CCC(c5ccccc5)(CC3)CC4)c2)N1.[Br-] (stereo not drawn) [EXAMPLE 3853]
Output: range A

Input: Now this one: CCCCC1(CCCC)CS(=O)(=O)c2ccc(N(C)C)cc2C(c2cccc(NC(=S)Nc3ccc(C[n+]4ccc(C(C)(C)C)cc4)c([N+](=O)[O-])c3)c2)N1 (stereo not drawn) [EXAMPLE P373]
Output: range C

Input: Now this one: CCCCC1(CCCC)CS(=O)(=O)c2ccc(N(C)C)cc2C(c2cccc(NC(=S)Nc3ccc(C[n+]4ccc(C(C)(C)C)cc4)c(Cl)c3)c2)N1 (stereo not drawn) [EXAMPLE P369]
Output: range B

Input: Now this one: CCCCC1(CCCC)CS(=O)(=O)c2ccc(N(C)C)cc2C(c2cccc(NC(=S)Nc3c(C)cc(C[n+]4ccc(C(C)(C)C)cc4)cc3C)c2)N1 (stereo not drawn) [EXAMPLE P374]
Output: range B

Input: Now this one: CCCCC1(CCCC)CS(=O)(=O)c2ccc(N(C)C)cc2C(c2cccc(NC(=S)Nc3ccc(C[n+]4ccccc4C)cc3)c2)N1 (stereo not drawn) [EXAMPLE 5407]
Output: range B

Input: Now this one: CCCCC1(CCCC)CS(=O)(=O)c2ccc(N(C)C)cc2C(c2cccc(NC(=S)Nc3ccc(C[N+]45CCC(c6ccccc6)(CC4)CC5)c(Br)c3)c2)N1.[Br-] (stereo not drawn) [EXAMPLE P347]
Output: range A

Input: Now this one: CCCCCCOC(=O)c1ccc[n+](Cc2ccc(NC(=S)Nc3cccc(C4NC(CCCC)(CCCC)CS(=O)(=O)c5ccc(N(C)C)cc54)c3)cc2)c1 (stereo not drawn) [EXAMPLE 3750]
Output: range C

Input: Now this one: CCCCC1(CCCC)CS(=O)(=O)c2ccc(N(C)C)cc2C(c2cccc(NC(=S)Nc3ccc(C[N+]4(C)CCC(O)CC4)cc3)c2)N1 (stereo not drawn) [EXAMPLE 3599]
Output: range B

Input: Now this one: CCCCC1(CCCC)CS(=O)(=O)c2ccc(N(C)C)cc2C(c2cccc(NC(=S)Nc3ccc(C[n+]4ccc(-c5ccccc5)cc4)c(Br)c3)c2)N1 (stereo not drawn) [EXAMPLE P383]
Output: range A

Input: Now this one: CCCCC1(CCCC)CS(=O)(=O)c2ccc(N(C)C)cc2C(c2cccc(NC(=S)Nc3ccc(C[N+](C)(CCC)CCC)cc3)c2)N1 (racemic) [EXAMPLE 3426]
Output: range B

Input: Now this one: CCCCC1(CCCC)CS(=O)(=O)c2ccc(N(C)C)cc2C(c2cccc(NC(=S)NCCC[N+]3(Cc4ccccc4)CCCC(CO)C3)c2)N1 (stereo not drawn) [EXAMPLE 592]
Output: range C
